- Tested on: MS2 coat protein
- protocol: apparent KD of MS2 coat protein; designed switch direction (-1 OFF switch, 1 ON switch): -1; higher = weaker reporter binding
- experimental_context: Eterna round: R95; input ligand: microRNA oligo, concentration not stated
measured_quantity: apparent KD of MS2 coat protein (nM)
Answers are plain numbers, in nM.

Completed entries (count: 6):
# monomer_sequence, output_unit, apparent KD of MS2 coat protein
measured = [
    ("GGAGCGAUUCUCUUAGCAGACAUGAGGAUCACCCAUGUAUGCAAGCUCUUAUUUUGCUCGUCUUACCGGGAGUUGCU [Ridizaer] (puzzle: Sensor v3, turn-off variant 1)", "nM", 20.7),
    ("ACUAGAUGAGGAUAUACACAUUUUAGUGUUCCUCUAGAUUAACAUGAGGAUCACCCAUGUAGAAGGCAUCAAUU [Exclusion 2 - 11] (puzzle: Exclusion 2)", "nM", 57.8),
    ("CGAAGUAGAAACCGAUCCUACAUGAGGAUCACCCAUGUAGCAAGACGUGCACGCGAAGCUCGUCAGACUACCAGAAA [salish99_TOv1_r3_016] (puzzle: Sensor v3, turn-off variant 1)", "nM", 213),
    ("AUACCACGAGGAUAUCGUCUAUAUUACAUGAGGAUCACCCAUGUUAUAUUUGUAAUGUUUCGAGAAGGCGUGUUUU [JR_E5_Sub081] (puzzle: Exclusion 5)", "nM", 14.4),
    ("AUUGAUGUUGAGGAUAUGCUUUUAUUUAUUCUUGCAGAAGGCGAUACAUGAGGAUCACCCAUGUUCAUGGAAGU [JR_E6_Sub091] (puzzle: Exclusion 6)", "nM", 30.7),
    ("GGUUGACAUGAGGAUCACCCAUGUGAGGAUAUGCGAGAGAAAAAAGUGAGGAAGAAACGCAGAAGGCGCUGUCG [salish99-ex1_r3_010] (puzzle: Exclusion 1)", "nM", 163),
]

Give me apparent KD of MS2 coat protein for each of these sequences, listed below.
1. CCUUAGUAAGGAUAUCAGCUUAUAGAGUUGGUAAUGAGAGCUGAGAAGGUACAUGAGGAUCACCCAUGUUAGUU [JL Zatite mod 4] (puzzle: Exclusion 4)
2. CUUAGACAUGAGGAUCACCCAUGUGAGGAUAUGAUACAAUCAUACUAACAUAAUCACAUCAGAAGGCACAUAUG [Mat - Mod of JL D68] (puzzle: Exclusion 1)
3. UCAUACGGUGAGGAUAUCUCCGUUAAAGUAUGUAGAGAAGGCGCUACAUGAGGAUCACCCAUGUUUGUGGGCAG [Ex-6 Malc#10] (puzzle: Exclusion 6)
4. AGUUGGCGAGGAUAUACAUGAGGAUCACCCAUGUGAGAGAAAAAAGUGAGGAAGAAAAGUAGAAGGCGCUGACC [salish99_ex3_r3_041] (puzzle: Exclusion 3)
5. GAGUAGGGAGGAUAUACGUGCUCAAUCCCGCGAAGCGGGAAACAUGAGGAUCACCCAUGUAGAAGGCCCAUAAA [Inceveus] (puzzle: Exclusion 2)
6. UCCGAACAUGAGGAUCACCCAUGUGAGGAUAUCCCGAGAUUAAAUGCCGCAAGAAGGCGGAGAAGGCGCAUGGG [Biditiinen] (puzzle: Exclusion 1)
7. CGGAGCGUAGGUAGGUUCAACAUGAGGAUCACCCAUGUCUCACAAGCUUUUUGCUCAUCUUAUUGUACCUUGGUGCU [Sensor v3, turn-off variant 1 (MOD of JL )] (puzzle: Sensor v3, turn-off variant 1)
8. UUUGAUUAUGUGAGGAUAUACUGUUUGUAUUGAUUGUAGAAGGUACAUGAGGAUCACCCAUGUUUUGUAUUUAU [JR_BME4_Sub036] (puzzle: Brourd's mod of Exclusion 4)

Solution:
1. 20.3
2. 55.8
3. 323
4. 49.8
5. 171
6. 17.3
7. 37.3
8. 17.1

Give apparent KD of MS2 coat protein for all sequences that follow.
1. AAUAAACAUGAGGAUCACCCAUGUGAGGAUAUGCAAAUAAAUAAAUAAAUAAAUAAUAGUAGAAGGCGCAAUAA [Excls1-I] (puzzle: Exclusion 1)
2. CUGGUGUGAGGAUAUCAGGACACGUAAGCGGGCGUGUCAAAUGAGAAGGCACAUGAGGAUCACCCAUGUGGGAC [Atbeceesxe] (puzzle: Exclusion 4)
3. AUCAUGUGAGGAUAUGUGAUCAACCUUCUAUAUAGAUGAUGACAGAAGGCACAUGAGGAUCACCCAUGUAGAUC [Ex4 - 3 - 20] (puzzle: Exclusion 4)
4. GUCAUGUUAGGAUAUCUGACAUGUGACUUCGGUCACUGUCCAGAGAAGGAACAUGAGGAUCACCCAUGUUGGAC [Ex4-3: 55] (puzzle: Exclusion 4)
5. GAGGACUGAGGAUAUGCGUUGGUACCUCGUAGUAAGCAAAGACAUGAGGAUCACCCAUGUAGAAGGCGGAAAAG [Xegeinenxe] (puzzle: Exclusion 2)
6. AGUAACCGUCACGAAAGUGAUGGUUACACAAGCAUAUGUACAUGAGGAUCACCCAUGUCCUCAAUUGCUCGUCUUAU [Sensor 3 - 54] (puzzle: Sensor v3, turn-off variant 2)
7. UUUUAACAUGAGGAUCACCCAUGUGAGGAUAUCGAAAUUUAUAUUAAUAUUAAUUUAACGAGAAGGCACAUUUU [JMF 31] (puzzle: Exclusion 1)

Solution:
1. 52.6
2. 27.8
3. 45.1
4. 43.2
5. 58.6
6. 250
7. 88.5
